experimentalTarget: T1, GRIP1_2, Q9Y3R0
T1 sequence (Q9Y3R0 145-248, limits assumed, looked up): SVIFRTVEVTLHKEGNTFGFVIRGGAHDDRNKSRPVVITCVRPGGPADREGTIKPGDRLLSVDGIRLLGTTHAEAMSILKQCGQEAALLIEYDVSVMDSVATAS
testProtocol: holdup assay
Parameters: key: below the threshold = too weak to quantify, mostly under pKd 3.1 to 4
settings: plain residues with an end cap or a label only (N-terminal biotin on a linker: ado-ado)

[
  {
    "binder": "NTANRRTTPV [CACNG2, Q9Y698]",
    "pKd": "below the threshold"
  },
  {
    "binder": "VKRNSKETVV [MARCHF3, Q86UD3]",
    "pKd": "below the threshold"
  },
  {
    "binder": "EDGESWEYQI [TRPV6, Q9H1D0]",
    "pKd": "below the threshold"
  },
  {
    "binder": "NISYRRESAI [KCNJ4, P48050]",
    "pKd": "below the threshold"
  },
  {
    "binder": "GTGYDRKDYV [CLDN3, O15551]",
    "pKd": "below the threshold"
  },
  {
    "binder": "QSGLYESEEL [MYOT, Q9UBF9]",
    "pKd": "below the threshold"
  },
  {
    "binder": "DPAESMESLV [PTPRG, P23470]",
    "pKd": "below the threshold"
  },
  {
    "binder": "RQKEVRESKC [SCN8A, Q9UQD0]",
    "pKd": "below the threshold"
  }
]
